Hello, the source for this data is ChEMBL document CHEMBL1145829, in case you need it.

- Tested on: MCF7
- Protocol Notes: cells
- Assay Setup: Homo sapiens
Categorized via IC50: bottom bin (below 4 nM), middle bin (4 nM to below 7 nM), top bin (7 nM or more)

Molecule: CC1(c2ccc(OCCN3CCCC3)cc2)c2ccc(O)cc2CCN1c1cccc(F)c1 (centres undefined)
Discrete Label: bottom bin
//
Molecule: CCC(=C(c1ccc(O)cc1)c1ccc(OCCN(C)C)cc1)c1ccccc1
Discrete Label: top bin
//
Molecule: CC1(c2ccc(OCCN3CCCCC3)cc2)c2ccc(O)cc2CCN1c1cccc(O)c1 (centres undefined)
Discrete Label: bottom bin

-- ask // bin(item) where item = CN(C)c1cccc(N2CCc3cc(O)ccc3C2(C)c2ccc(OCCN3CCCC3)cc2)c1 (centres undefined)
-- reply top bin

-- ask # iterate: CC(C)c1ccc(N2CCc3cc(O)ccc3C2(C)c2ccc(OCCN3CCCCC3)cc2)cc1 (centres undefined)
-- reply bottom bin
